- Tested on: PnyAgo WT (Pedobacter nyackensis)
- run-description: filter binding
- condition-info: guide-loaded; 5'-phosphate on guide; 10 mM Tris-HCl pH 7.9, 100 mM NaCl, 5 mM MgCl2 (or none), 5% glycerol, 100 ug/ml BSA, 37 C
measured-property: Kd (nM)
Value expressed in nM; do not type the unit.

GET /values?readout=Kd&item= GTTAGACTTTAAGTCAAT / UUUAUCAAAAAGAGUAUUGACUUAAAGUCUAACCUAUAGGAUACUUACAG [guide DNA / G-target-RNA]
7.5
